- measurement_target: Histone-arginine methyltransferase CARM1 (Homo sapiens, UniProt Q86X55)
- Sequence (Q86X55 whole entry): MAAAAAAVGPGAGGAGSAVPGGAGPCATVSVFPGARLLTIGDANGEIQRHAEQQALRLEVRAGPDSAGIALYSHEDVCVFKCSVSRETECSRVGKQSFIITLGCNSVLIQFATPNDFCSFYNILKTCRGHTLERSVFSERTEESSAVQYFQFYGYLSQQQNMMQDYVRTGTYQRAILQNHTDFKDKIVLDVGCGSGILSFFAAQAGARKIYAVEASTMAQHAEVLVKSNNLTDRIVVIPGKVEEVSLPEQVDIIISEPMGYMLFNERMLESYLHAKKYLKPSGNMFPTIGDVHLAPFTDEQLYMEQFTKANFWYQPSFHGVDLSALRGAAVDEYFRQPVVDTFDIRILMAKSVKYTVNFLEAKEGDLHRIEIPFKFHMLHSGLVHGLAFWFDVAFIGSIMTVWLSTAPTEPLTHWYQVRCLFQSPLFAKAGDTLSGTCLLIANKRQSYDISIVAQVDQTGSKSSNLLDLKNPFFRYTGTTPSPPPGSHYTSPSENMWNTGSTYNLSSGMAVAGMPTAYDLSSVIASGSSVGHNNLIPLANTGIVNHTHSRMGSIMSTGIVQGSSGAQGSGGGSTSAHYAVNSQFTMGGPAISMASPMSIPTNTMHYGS
Study the reported IC50 values for Histone-arginine methyltransferase CARM1 (Homo sapiens, UniProt Q86X55) given below; they originate from different publications.

| compound | IC50 |
| --- | --- |
| C[C@H](N)CNCc1cccc(-n2nc(C(F)(F)F)cc2-c2nnc(-c3ccccc3)o2)c1 | > 10 µM |
| CS(=O)(=O)c1ccccc1-c1ccc(NC(=O)c2cc(C(F)(F)F)nn2-c2cccc(CNC(=O)C(N)C(F)(F)F)c2)c(F)c1 (centres undefined) | > 30 µM |
| CC(CNC(=O)Nc1ccc(C(C)(C)C)cc1)CN(C)C[C@H]1O[C@@H](n2cnc3c(N)ncnc32)[C@H](O)[C@@H]1O (some centres undefined) | > 50 µM |
| COc1ccc2c(ccn2C[C@H](O)CN2CCc3ccccc3C2)c1 | > 20 µM |
